Tested on: NCI/ADR-RES complex spheroid viability
Experiment: Anticancer human tumor NCI/ADR-RES cell line growth inhibition;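 note: spheroids exposed to compounds for 7 days; 100% = DMSO vehicle treated spheroids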
Conditions: second compound 3.16 µM; first compound 0.1 µM; hits give low values
Source text: Multicellular complex tumor spheroid response to LSD1 Inhibitor Iadademstat in combination with a variety of drugs and investigational agents in selected tumor cell lines The current study was undertaken to assess response to LSD1 inhibitors in combination with standard-of-care drugs and investigational agents in solid tumor complex spheroid models as well as in the K-562 leukemia. […] Compounds. […] If the clinical Cmax for an agent had not been determined, the highest concentration tested was 10 microM. […]
Reported viability, T/C by item:
parameter: viability, T/C (%)

INSERT INTO assay_data (molecule, recorded_number) VALUES
  ('Nc1ncn(C2CC(O)C(CO)O2)c(=O)n1 (configuration not stated) + NC1CCC(NC2CC2c2ccccc2)CC1', 40),
  ('CC1COCCN1c1cc(-c2ccnn2C)c2ccnc(-c3ccn[nH]3)c2n1 (configuration not stated) + NC1CCC(NC2CC2c2ccccc2)CC1', 2.4),
  ('CC(C)CC(NC(=O)CNC(=O)c1cc(Cl)ccc1Cl)B1OC(=O)CC(CC(=O)O)(C(=O)O)O1 (configuration not stated) + NC1CC1c1ccc(-c2cccc(O)c2)cc1', 4.76),
  ('O=C(C=Cn1cnc(-c2cc(C(F)(F)F)cc(C(F)(F)F)c2)n1)NNc1cnccn1 + NC1CCC(NC2CC2c2ccccc2)CC1', 7.79),
  ('Cn1ncnc1C1c2n[nH]c(=O)c3cc(F)cc(c23)NC1c1ccc(F)cc1 (configuration not stated) + NC1CC1c1ccc(-c2cccc(O)c2)cc1', 93.8),
  ('COc1ccc([C@@H](O)c2cc(-c3ncnc4cc(N5CCOCC5)ccc34)c(F)cc2Cl)nn1 + NC1CC1c1ccc(-c2cccc(O)c2)cc1', 96),
  ('CC(C)c1c(-c2ccccc2)nc2c(C#N)c[nH]n2c1=O + NC1CCC(NC2CC2c2ccccc2)CC1', 104);

---

System: NCI/ADR-RES complex spheroid viability
Assay: Anticancer human tumor NCI/ADR-RES cell line growth inhibition; active means viability on the fitted dose curve at most 10% of control; inactive means the rest;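 note: spheroids exposed to compounds for 7 days; 100% = DMSO vehicle treated spheroids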
Settings: second compound 10 µM; first compound 1 µM
Source text: Multicellular complex tumor spheroid response to LSD1 Inhibitor Iadademstat in combination with a variety of drugs and investigational agents in selected tumor cell lines The current study was undertaken to assess response to LSD1 inhibitors in combination with standard-of-care drugs and investigational agents in solid tumor complex spheroid models as well as in the K-562 leukemia. […] Compounds. […] If the clinical Cmax for an agent had not been determined, the highest concentration tested was 10 microM. […]
Labels: yes (active), no (inactive)

INSERT INTO assay_data (compound, assigned_category) VALUES
  ('COc1cc(Nc2ncc3c(n2)-c2ccc(Cl)cc2C(c2c(F)cccc2OC)=NC3)ccc1C(=O)O + NC1CC1c1ccc(-c2cccc(O)c2)cc1', 'no'),
  ('CC1(C)CCC(CN2CCN(c3ccc(C(=O)NS(=O)(=O)c4ccc(NCC5CCOCC5)c([N+](=O)[O-])c4)c(Oc4cnc5[nH]ccc5c4)c3)CC2)=C(c2ccc(Cl)cc2)C1 + NC1CCC(NC2CC2c2ccccc2)CC1', 'no'),
  ('CC1COCCN1c1cc(-c2ccnn2C)c2ccnc(-c3ccn[nH]3)c2n1 (stereo not given) + NC1CC1c1ccc(-c2cccc(O)c2)cc1', 'yes'),
  ('O=C(c1cc(Cc2n[nH]c(=O)c3ccccc23)ccc1F)N1CCN(C(=O)C2CC2)CC1 + NC1CC1c1ccc(-c2cccc(O)c2)cc1', 'no'),
  ('CC1COCCN1c1cc(-c2ccnn2C)c2ccnc(-c3ccn[nH]3)c2n1 (stereo not given) + NC1CCC(NC2CC2c2ccccc2)CC1', 'yes');
